Molecular target: hT2R4 (Homo sapiens (Human))
Sequence (Q9NYW5 whole entry): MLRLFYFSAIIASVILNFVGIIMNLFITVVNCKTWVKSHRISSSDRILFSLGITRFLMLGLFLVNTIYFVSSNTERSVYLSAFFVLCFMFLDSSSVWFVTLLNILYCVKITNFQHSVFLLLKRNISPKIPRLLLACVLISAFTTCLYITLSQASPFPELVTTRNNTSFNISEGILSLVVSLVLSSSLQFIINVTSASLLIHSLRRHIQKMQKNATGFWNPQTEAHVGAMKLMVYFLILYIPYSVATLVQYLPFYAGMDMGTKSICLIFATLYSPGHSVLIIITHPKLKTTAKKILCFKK
Assay: hT2R panel inhibition, transient HEK293 G16g44, agonist Chloroquine pH6.5 5 mM
Type: cell-based
Settings: HEK293, compound at 25 μM; receptor activated to EC80 with the corresponding agonist; class symbols; read-out: screening result against bitter receptor 4
QUANTITY: inhibition at 25 µM

O=C(O)C1CCC(CN(Cc2ccc(F)cc2)S(=O)(=O)c2ccccc2)CC1 (centres unmarked) [Example 5-22]
40 to 60%
CCN(Cc1ccc(OC)cc1)S(=O)(=O)c1ccc(C(=O)O)cc1 [Example 5-4]
20 to 40%
O=C(O)C1CCC(CN(Cc2ccc(F)cc2)S(=O)(=O)c2cccs2)CC1 (centres unmarked) [Example 5-51]
20 to 40%
O=C(O)C1CCC(CN(Cc2ccc(F)cc2)S(=O)(=O)Cc2ccccc2)CC1 (centres unmarked) [Example 5-24]
20 to 40%
O=C(O)c1ccc(CN(Cc2ccc(F)cc2)S(=O)(=O)c2ccccc2)cc1 [Example 5-105]
20 to 40%
COc1ccc(CN(Cc2cccc(F)c2F)S(=O)(=O)c2ccc(C(=O)O)cc2)cc1 [Example 5-33]
40 to 60%
COc1cccc(CN(Cc2ccc(C(=O)O)cc2)S(=O)(=O)c2ccccc2)c1 [Example 5-101]
40 to 60%
O=C(O)c1ccc(CN(Cc2cccc(F)c2)S(=O)(=O)c2ccccc2)cc1 [Example 5-104]
40 to 60%
